STUDY SYSTEM: T1, SNTG1, Q9NSN8
T1 sequence (Q9NSN8 52-150, limits assumed, looked up): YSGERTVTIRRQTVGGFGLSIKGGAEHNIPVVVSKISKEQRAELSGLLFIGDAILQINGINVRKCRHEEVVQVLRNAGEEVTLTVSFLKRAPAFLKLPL
METHOD: holdup assay
Parameters: key: below the threshold = too weak to quantify, mostly under pKd 3.1 to 4
EXPERIMENTAL CONDITIONS: plain residues with an end cap or a label only (N-terminal biotin on a linker: ahx)

- BINDER: "APSRKLNTEI [TIAM1, Q13009]"
  pKd: "below the threshold"
- BINDER: "QDEKVKESYV [ABCA1, O95477]"
  pKd: 5.24
- BINDER: "QNTDDVQTSF [ACE2, Q9BYF1]"
  pKd: "below the threshold"
- BINDER: "TQKFRASTAL [FRMPD1, Q5SYB0]"
  pKd: "below the threshold"
- BINDER: "HTHSYIETHV [CNKSR2, Q8WXI2]"
  pKd: 4.9
- BINDER: "TESNLQTSSC [CGN, Q9P2M7]"
  pKd: "below the threshold"
- BINDER: "EKQAKGDTEF [CACYBP, Q9HB71]"
  pKd: "below the threshold"
- BINDER: "QPRTWLQSPV [RTKN, Q9BST9]"
  pKd: 3.52
- BINDER: "TEAKLTETNA [MYO18A, Q92614]"
  pKd: "below the threshold"

Data provenance: paper PMC9482650
